# pIC50 values compiled below
Assay: Inhibition of human 20S constitutive proteasome beta-2 using Bz-VGR-AMC as substrate after 60 mins by fluorescence assay
Scale note: pIC50 = -log10(concentration in M).

Reference set (5 entries):
CC(C)C[C@H](NC(=O)[C@H](CC(C)C)NC(=O)[C@@H](N)Cc1ccccc1)C(=O)N[C@@H](CCCNC(=N)N)CS(=O)(=O)F 6.60
CC(C)C[C@H](NC(=O)[C@H](Cc1ccccc1)N=[N+]=[N-])C(=O)N[C@@H](CC(C)C)C(=O)N[C@@H](CCCCN)CS(=O)(=O)F 6.15
CC(C)C[C@H](NC(=O)[C@H](CC(C)C)NC(=O)[C@@H](N)Cc1ccccc1)C(=O)N[C@@H](CCCCN)CS(=O)(=O)F 6.33
CC(C)C[C@H](NC(=O)[C@H](CC(C)C)NC(=O)[C@H](Cc1ccccc1)NC(=O)OC(C)(C)C)C(=O)N[C@@H](CCCNC(=N)N)CS(=O)(=O)F 6.15
CC(=O)N[C@@H](Cc1ccccc1)C(=O)N[C@@H](CC(C)C)C(=O)N[C@@H](CC(C)C)C(=O)N[C@@H](CCCCN)CS(=O)(=O)F 5.82

Quick one: pIC50 of CC(C)C[C@H](NC(=O)[C@H](CC(C)C)NC(=O)[C@@H](N)Cc1ccccc1)C(=O)N[C@@H](Cc1ccc(N)cc1)CS(=O)(=O)F ?
6.66

Further, for CC(C)C[C@H](NC(=O)OCc1ccccc1)C(=O)N[C@@H](CC(C)C)C(=O)N[C@@H](CC(C)C)C(=O)N[C@@H](CCCNC(=N)N)CS(=O)(=O)F ?
6.70

Likewise for CC(C)C[C@H](NC(=O)[C@H](CC(C)C)NC(=O)[C@@H](N)Cc1ccccc1)C(=O)N[C@@H](Cc1ccc(CN)cc1)CS(=O)(=O)F ?
6.85

Could you do the same for CC(=O)N[C@@H](Cc1ccccc1)C(=O)N[C@@H](CC(C)C)C(=O)N[C@@H](CC(C)C)C(=O)N[C@@H](CCCNC(=N)N)CS(=O)(=O)F , please?
6.01

Would you kindly repeat that for CC(=O)N[C@@H](Cc1ccccc1)C(=O)N[C@@H](CC(C)C)C(=O)N[C@@H](CC(C)C)C(=O)N[C@@H](Cc1ccc(N)cc1)CS(=O)(=O)F ?
5.68

###

Test: Inhibition of human 20S constitutive proteasome beta-2 using Bz-VGR-AMC as substrate after 60 mins by fluorescence assay
QUANTITY_MEASURED: pIC50
Field pIC50 (float): negative decimal logarithm of the concentration in molar.

Here are 2 compounds together with their reported answers.
CC(=O)N[C@@H](Cc1ccccc1)C(=O)N[C@@H](CC(C)C)C(=O)N[C@@H](CC(C)C)C(=O)N[C@@H](Cc1ccc(CN)cc1)CS(=O)(=O)F 6.92
CC(C)C[C@H](NC(=O)[C@H](CC(C)C)NC(=O)[C@H](Cc1ccccc1)NC(=O)OCc1ccccc1)C(=O)N[C@@H](CCCNC(=N)N)CS(=O)(=O)F 6.82

Then there is this compound:
Which pIC50 value belongs to CC(C)C[C@H](NC(=O)[C@H](Cc1ccccc1)N=[N+]=[N-])C(=O)N[C@@H](CC(C)C)C(=O)N[C@@H](CCCNC(=N)N)CS(=O)(=O)F ?
6.46
